B1: FUNDC2 (parent)
chain: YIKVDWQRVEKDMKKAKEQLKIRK

variants of: B1; assay: protein stability index of a GFP-peptide fusion (GPS, HEK-293T) (PSI 1-6); higher = more stable; settings: c terminus: a fixed tail appended;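 further: lentivirally expressed fusions sorted by FACS into six bins by GFP to DsRed ratio, PSI derived from sequencing read proportions per bin multiplied by bin number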
property: protein stability index

>>> print(df.to_string())
   variant_notation  reading
0               V4K     1.92
1               I2A     3.35
2              K21I     1.68

**Query** Please give the measured protein stability index for this variant: W6G
**Result** 2.81

**Query** Would you mind doing D5N as well?
**Result** 2.19

**Query** Would you mind doing K21M as well?
**Result** 1.96

**Query** Would you mind doing W6K as well?
**Result** 3.09

**Query** Would you mind doing V9P as well?
**Result** 1.81

**Query** Would you mind doing W6F as well?
**Result** 2.63
